In this section we review reported % inhibition values for a set of molecules.
# ASSAYED TARGET: human recombinant ENPP1 (Homo sapiens, UniProt P22413)
# Construct: purchased R&D systems
# Sequence (P22413 1-925): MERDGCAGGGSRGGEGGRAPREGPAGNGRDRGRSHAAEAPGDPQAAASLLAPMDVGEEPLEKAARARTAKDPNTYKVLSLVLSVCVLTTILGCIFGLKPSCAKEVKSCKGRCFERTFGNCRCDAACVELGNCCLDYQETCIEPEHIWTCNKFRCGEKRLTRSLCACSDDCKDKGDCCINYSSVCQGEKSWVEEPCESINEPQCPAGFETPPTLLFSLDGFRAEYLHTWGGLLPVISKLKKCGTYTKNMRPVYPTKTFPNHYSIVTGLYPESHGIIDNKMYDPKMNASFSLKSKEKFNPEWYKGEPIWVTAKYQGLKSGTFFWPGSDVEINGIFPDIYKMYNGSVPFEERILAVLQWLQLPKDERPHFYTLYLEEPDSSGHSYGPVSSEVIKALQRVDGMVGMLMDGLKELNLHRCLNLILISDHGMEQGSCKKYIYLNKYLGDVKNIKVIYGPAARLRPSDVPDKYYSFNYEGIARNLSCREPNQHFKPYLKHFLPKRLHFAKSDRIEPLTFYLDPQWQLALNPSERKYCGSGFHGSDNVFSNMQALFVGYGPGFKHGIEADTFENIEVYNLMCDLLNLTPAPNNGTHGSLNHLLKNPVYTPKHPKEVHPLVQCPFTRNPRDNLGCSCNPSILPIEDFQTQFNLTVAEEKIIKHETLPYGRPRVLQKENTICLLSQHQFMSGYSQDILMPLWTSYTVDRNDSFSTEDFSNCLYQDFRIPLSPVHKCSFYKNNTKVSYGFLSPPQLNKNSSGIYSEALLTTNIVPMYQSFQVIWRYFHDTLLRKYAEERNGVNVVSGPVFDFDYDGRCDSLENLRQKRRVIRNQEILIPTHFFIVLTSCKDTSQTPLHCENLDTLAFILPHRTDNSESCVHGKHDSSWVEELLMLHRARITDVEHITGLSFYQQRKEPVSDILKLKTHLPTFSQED
# ASSAY INFO: in vitro recombinant human ENPP1 enzymatic assay (AMP-Glo, cGAMP substrate)
# Format: biochemical
# RECORDED CONDITIONS: Table 2; ENPP1; test concentration not given
Report the figure in % without appending any unit label.

Previously resolved entries follow.
Answer with the recorded % inhibition for the molecule listed here: Cn1ccc2c(-c3ccc(CNS(N)(=O)=O)cc3)ncnc21 [25e] 72

Give the measured % inhibition for CC(NS(N)(=O)=O)c1ccc(-c2ncnc3[nH]ccc23)cc1 (stereo not drawn) [25j] 100

Now, please, on to the next molecule.
Supply measured % inhibition of NS(=O)(=O)NCc1ccc(-c2ncnc3[nH]ccc23)cc1F [25c] in your reply. 73
